experimental target: KOR (Homo sapiens, UniProt P41145)
Construct: expressed in transfected cells; host or cells: CHO (hKOR-CHO)
Sequence (P41145 whole entry): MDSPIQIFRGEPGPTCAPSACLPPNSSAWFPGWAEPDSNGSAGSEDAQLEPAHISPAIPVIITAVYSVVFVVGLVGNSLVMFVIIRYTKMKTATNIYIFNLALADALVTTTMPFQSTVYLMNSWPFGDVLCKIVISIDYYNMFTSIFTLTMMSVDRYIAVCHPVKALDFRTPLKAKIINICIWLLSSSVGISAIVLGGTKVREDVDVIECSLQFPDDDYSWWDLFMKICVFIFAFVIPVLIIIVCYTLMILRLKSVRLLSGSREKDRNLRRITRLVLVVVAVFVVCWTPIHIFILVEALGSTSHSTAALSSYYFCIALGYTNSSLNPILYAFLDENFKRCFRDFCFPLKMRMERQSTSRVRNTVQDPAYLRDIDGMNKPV
experiment summary: biochemical
Assay type: binding
Quick reference: selectivity ratio KOR/DOR of the listed items.
readout kind: selectivity ratio KOR/DOR

>>> print(df.to_string())
                                   compound               readout_kind  result_number
0  CN1CCC23c4c5ccc(O)c4OC2c2ncc(-c4ccc(Cl)cc4)cc2CC3(OCCCc2ccccc2)C1C5 (stereo not shown) [Compound 17h]  selectivity ratio KOR/DOR            1.5
1  Oc1ccc2c3c1OC1c4ncc(-c5ccc(Cl)cc5)cc4C=C4C(C2)N(CC2CC2)CCC431 (stereo not shown)  selectivity ratio KOR/DOR            2.2
2  Oc1ccc2c3c1OC1c4ncc(-c5ccc(Cl)cc5)cc4CC4(OCc5ccccc5)C(C2)N(CC2CC2)CCC314 (stereo not shown) [Compound 17b]  selectivity ratio KOR/DOR            2.8
3  Oc1ccc2c3c1OC1c4ncc(-c5ccc(Cl)cc5)cc4CC4(OCC=Cc5ccccc5)C(C2)N(CC2CC2)CCC314 (stereo not shown) [Compound 17c]  selectivity ratio KOR/DOR           0.89

###

experimental target: KOR (Homo sapiens)
Construct: expressed in transfected cells; host or cells: CHO (hKOR-CHO)
experiment summary: biochemical
Type: binding
Quick reference: selectivity ratio KOR/DOR of the listed items.
readout kind: selectivity ratio KOR/DOR

>>> df
                                   compound  result_number
0  O=C(OC12Cc3cc(-c4ccc(Cl)cc4)cnc3C3Oc4c(O)ccc5c4C31CCN(CC1CC1)C2C5)c1ccccc1 (stereo not drawn) [Compound 18a]            1.3
1  COC12Cc3cc(-c4ccc(Cl)cc4)cnc3C3Oc4c(O)ccc5c4C31CCN(CC1CC1)C2C5 (stereo not drawn) [Compound 17a]            2.8
2  CN1CCC23c4c5ccc(O)c4OC2c2ncc(-c4ccc(Cl)cc4)cc2CC3(OC(=O)CCc2ccccc2)C1C5 (stereo not drawn) [Compound 18f]            4.6

###

Quick reference: Emax of the listed items.
experimental target: KOR (Homo sapiens, UniProt P41145)
Construct: expressed in transfected cells; host or cells: CHO (hKOR-CHO)
experiment summary: [35S]GTP-γ-S binding assay, hKOR-CHO cells
Type: biochemical
measurement context: normalized to stimulation by standard agonist
readout kind: Emax (%)

In [3]: df
Out[3]:
                                   compound  result_number
0  CN1CCC23c4c5ccc(O)c4OC2c2ncc(-c4ccc(Cl)cc4)cc2CC3(OC(=O)CCc2ccccc2)C1C5 (stereo not drawn) [Compound 18f]             16
1  CN1CCC23c4c5ccc(O)c4OC2c2ncc(-c4ccc(Cl)cc4)cc2CC3(OCc2ccccc2)C1C5 (stereo not drawn) [Compound 17f]             32
2  COC12Cc3cc(-c4ccc(Cl)cc4)cnc3C3Oc4c(O)ccc5c4C31CCN(C)C2C5 (stereo not drawn) [Compound 17e]             36
3  CN1CCC23c4c5ccc(O)c4OC2c2ncc(-c4ccc(Cl)cc4)cc2CC3(OC(=O)Cc2ccccc2)C1C5 (stereo not drawn) [Compound 18e]             36
4  O=C(Cc1ccccc1)OC12Cc3cc(-c4ccc(Cl)cc4)cnc3C3Oc4c(O)ccc5c4C31CCN(CC1CC1)C2C5 (stereo not drawn) [Compound 18b]             34
5  Oc1ccc2c3c1OC1c4ncc(-c5ccc(Cl)cc5)cc4CC4(OCc5ccccc5)C(C2)N(CC2CC2)CCC314 (stereo not drawn) [Compound 17b]             15
